Conditions: Ebola virus entry assay, blue channel fluorescence
Calls of active or inactive are those of the source. The rule behind the calls is not given here.
Assign a class; possible classes are active, inactive

Look over these answered cases.
CN1CCN(C2=Nc3ccccc3Oc3ccc(Cl)cc32)CC1 :: active
COc1cc(NCc2ccc3nc(N)nc(N)c3c2C)cc(OC)c1OC :: active

Switching to the query record.
[Q] # fetch the recorded call for CC1NCCOC1c1ccccc1 (stereo not drawn) here
[A] inactive

----------
System: P94_40
Test: qHTS profiling for inhibitors of Plasmodium falciparum proliferation (AID 504749); note: nearly all actives have a fitted effect of over 60% in size
Settings: P. falciparum in erythrocytes, SYBR Green DNA, 72 h; series mostly up to 28.7 µM
Method: NIH National Institute of Allergy and Infectious Diseases [NIAID] NIH Chemical Genomics Center [NCGC] […] Because mature erythrocytes lack DNA, only Plasmodium-derived DNA is detected. NCGC Assay Protocol Summary: The SYBR Green viability assay was adapted from a method described previously (Plouffe et al., 2008). […] The following morning, fluorescence intensity at 485(14) nm excitation and 535(25) nm emission wavelengths was measured on an EnVision (Perkin Elmer) plate reader. […]
Inconclusive results are not listed. Calls of active or inactive are those of the source. Calls come from the whole dose curve; as a rule, active = well fitted inhibition curve with a large enough effect; inconclusive = small, poorly fitted or top-dose-only effect; inactive = flat fitted curve, though single readings scatter.
Assign a class; possible classes are Y for active, N for inactive

COc1ccccc1N1CCNCC1 :: N
NCC1(CC(=O)O)CCCCC1 :: N
Fc1ccc(C(OCCN2CCN(CCCc3ccccc3)CC2)c2ccc(F)cc2)cc1 :: Y
NP(N)(=O)NC(=O)c1ccc(F)cc1 :: N

Switching to the query record.
[Q] # fetch the recorded call for CCN(C(C)=O)c1cccc(-c2ccnc3c(C#N)cnn23)c1 here
[A] N

Data provenance is PubChem BioAssay (NCATS).
